Tested on: UACC-62 melanoma
Test: NCI tumour cell line growth inhibition, 48 h
Below, each entry is listed alongside its reported TGI.

Worked cases, TGI given:
1. Cc1cc2c(=O)cc(-c3ccc(F)cc3)oc2c(C(=O)O)c1C	> 100 µM
2. CNC(=O)c1cc2c(Oc3ccc(NC(=S)NC(=O)Cc4ccccc4)cc3F)ccnc2cc1OC	> 100 µM
3. CC1(C)N=C(N)N=C(N)N1c1ccc(Cl)c(Cl)c1	> 100 µM
4. O=C1CSC(C(N=Nc2ccc(Cl)cc2)c2nc3ccccc3[nH]2)=N1 (configuration not stated)	> 100 µM
5. COc1ccc(N(C(=O)NCCO)c2ccccc2)cc1	> 100 µM
6. COc1ccc(-c2nc(-c3nc4ccc(C(F)(F)F)cc4[nH]3)c3ccccn23)cc1	> 100 µM

Log: UACC-62 melanoma, molecule "NC(=O)SCC(=O)Nc1ccc2ncccc2c1" , TGI = > 100 µM

====

Quick reference: TGI of the listed items.
Tested on: OVCAR-8 ovarian
Experiment: NCI tumour cell line growth inhibition, 48 h
Where a SMILES comes first, the peptide text is derived from it. The star is where a group is joined. Boc = CC(C)(C)OC(=O)*; OBn = c1ccc(CO*)cc1

1) NC(C(=O)OC(=O)c1ccccc1)C(=O)OC(=O)c1ccccc1	> 100 µM
2) CC(C)CC(NC(=O)C(Cc1ccccc1)NC(=O)C(Cc1ccccc1)NC(=O)OC(C)(C)C)C(=O)OCc1ccccc1 (stereo not drawn) (Boc-Phe-Phe-Leu-OBn; configuration not given here)	> 100 µM
3) COc1cc2ccc(CC(N)=O)cc2cc1OC	> 100 µM
4) COc1cc(NC(C)CCCN)c2ncccc2c1Sc1ccc(Cl)cc1 (stereo unspecified)	3 µM
5) CC(C)(C)N=CN(C=C(c1ccccc1)c1ccccc1)C1CCCCC1	> 100 µM

Just so you know, measured TGI for O=C(CC1C(=O)Nc2ccccc2S1(=O)=O)Nc1cccc(Cl)c1 (stereo unspecified) came out at 33.1 µM

# compound "CC(=O)c1cccc(NC(=O)c2ccc(NC3=C(Cl)C(=O)N(Cc4ccccc4)C3=O)cc2)c1" ; its TGI = 50.7 µM

Measured TGI of "O=C(Nc1cccc(-n2cc(-c3ccncc3)c(-c3ccc(O)c(Cl)c3)n2)c1)c1ccc(Cl)c(Cl)c1" : > 100 µM

Given item "COc1ccc(Oc2cc(NCCC(F)(F)F)c3ncc(-c4ccc(C(=O)NC5CC5)c(C)c4)n3n2)c(F)c1F" , the value recorded as its TGI is 26.9 µM

For this compound ( "CNc1nc2c(C)ccc3[nH]c(N(C)C)nc3c-2n1" ), measured TGI is > 100 µM

Looking up "Nc1c2c(nc3ccccc13)CCCc1ccccc1-2" , I found its TGI recorded as 30.8 µM

Lab book: TGI of "CC(=O)c1ccc2c(c1)N(CCCN(C)C)c1ccccc1S2" noted as 37.4 µM

# compound "Cc1nc2cccc([N+](=O)[O-])c2n1CCCN(C)C" ; its TGI = > 100 µM

"CC(C)(O)CCc1ccc(O)c2c(=O)c3c(O)c4c(cc3oc12)O[C@H]1OC=C[C@@]41O" yielded TGI of 0.273 µM

Note to self: TGI recorded for "Nc1cc2nc3ccccc3oc-2cc1=O" was > 100 µM

Memo: "CCOC(=O)N1N(c2ccccc2)C(=O)C1(c1ccccc1)c1ccccc1" , reported TGI: > 100 µM

Entry "Cc1cc(C)c2c(=O)cc(-c3ccc4ccccc4c3)[nH]c2n1" — recorded TGI = > 100 µM

"O=S(=O)(O)c1ccccc1N=Nc1ccc(N=Nc2c(O)ccc3ccccc23)c(S(=O)(=O)O)c1" has a reported TGI of > 100 µM

What the record says about "CC(C)N(/C(F)=N\C(=O)Nc1ccccc1C(F)(F)F)C(C)C" : TGI is > 100 µM

In plain terms, "O=[p+]1c2ccccc2[nH]c2ccccc21" has a documented TGI of > 100 µM

// sample "C=CCn1c(-c2ccc(Cl)cc2Cl)csc1=Nc1c(C)n(C)n(-c2ccccc2)c1=O" , its TGI was 21.7 µM

====

System: BT-549 breast
Assay: NCI tumour cell line growth inhibition, 48 h
property-name: GI50

Look over these answered cases.
1) CCc1c(C)c2ccc(OCC(=O)N=Nc3c(O)[nH]c4ccccc34)c(C)c2oc1=O	817 nM
2) CNCCCn1c2c(c3ccc(F)cc3c1=O)C(=O)c1cc(OC)cnc1-2	577 nM
3) COc1ccc(-c2nc(-c3nc4ccc(C(F)(F)F)cc4[nH]3)c3ccccn23)cc1	> 100000 nM
4) C[C@]12CC[C@@H]3c4ccc(O)cc4CC[C@H]3[C@@H]1CC[C@@H]2NS(=O)(=O)c1ccc2ccccc2c1	2920 nM
5) CN(C)c1ccc(C(=C2C=CC(=[N+](C)C)C=C2)c2ccccc2Cl)cc1	373 nM

According to the records, this compound "C[C@]12CCc3sc(-c4cccc(F)c4)nc3C1=CC[C@@H]1[C@@H]2CC[C@]2(C)C(=O)CC[C@@H]12" displays GI50 of 2200 nM

The reported GI50 of the compound "COc1ccc(C#CC2=C(c3cc(OC)c(OC)c(OC)c3)C(=O)OC2)cc1" was 2130 nM

Lookup result for CSc1nc(N)c2c(n1)NC(c1ccccc1)C1CCc3ccccc3C1=N2 (stereo unspecified) ; measured GI50: > 100000 nM

The value of GI50 measured for the compound "COc1ccc2[nH]c(O)c(/C=c3/ccc4c(c3)N=C(c3ccc(F)cc3)N=4)c2c1" turned out to be 1750 nM

Form field GI50, entry "O=C1N[C@H]2[C@H](O)[C@H](O)[C@@H](O)[C@H](O)[C@@H]2c2cc3c(c(O)c21)OCO3" : 18.7 nM

The recorded GI50 for "COc1ccc(Oc2cc(NCCC(F)(F)F)c3ncc(-c4ccc(C(=O)NC5CC5)c(C)c4)n3n2)c(F)c1F" is 2140 nM

====

Here the recorded TGI is given for each entry.
System: HCT-116 colon
Assay: NCI tumour cell line growth inhibition, 48 h

Form: compound = "N#CCCN(CCC#N)c1ccc(C(N=Nc2ccc(Cl)cc2)=Nc2ccc(Cl)cc2)cc1" ; TGI = 36.5 µM

Short answer for COc1ccc(-c2nc3cc(C(F)(F)F)ccc3n2CC2CCCN3CCCCC23)cc1 (stereo not drawn) : TGI was 33.6 µM

Sure, the documented TGI for "Nc1nc(-c2cc(-c3cccc4ccccc34)nc(N)n2)cc(-c2cccc3ccccc23)n1" is > 100 µM

get_value(item= "COc1cc2ccc(CC(N)=O)cc2cc1OC" , readout=TGI) returns > 100 µM

Entry "Cc1cc(C)c(C(=O)/C=C/c2ccccc2)c(C)c1" ; TGI = 78.2 µM

Recorded result, "O=C(NC(=O)c1cc2cc(Br)cc(Br)c2oc1=O)Oc1ccccc1" , TGI: > 100 µM

TGI for "CC(C)(O)CCc1ccc(O)c2c(=O)c3c(O)c4c(cc3oc12)O[C@H]1OC=C[C@@]41O" is 4.52 µM

compound "COc1ccccc1/C=C/c1nc2ccccc2o1" , TGI observed: > 10 µM

Value of measured TGI for the entry "C[C@]12CC[C@@H]3c4ccc(O)cc4CC[C@H]3[C@@H]1CC[C@@H]2NS(=O)(=O)c1ccc2ccccc2c1" : 10.6 µM

Record "CC(=O)c1ccccc1NS(=O)(=O)c1ccc2nc(C)n(NS(=O)(=O)c3ccccc3C(C)=O)c(=O)c2c1" . Reported TGI: > 100 µM

Memo: "Nc1[nH]c(=S)c2c(N)n[nH]c2c1C(=O)Nc1ccc(Cl)cc1" , reported TGI: > 100 µM

====

Examples of compounds with documented GI50 follow.
Test system: UACC-257 melanoma
Assay: NCI tumour cell line growth inhibition, 48 h

Worked examples follow.
1. N#C/C(=C\c1cccc2cnccc12)N1N=NC2C=CC=CC21 (stereo not drawn)	4.54 µM
2. O=C(Nc1cccc(-n2cc(-c3ccncc3)c(-c3ccc(O)c(Cl)c3)n2)c1)c1ccc(Cl)c(Cl)c1	4.12 µM

According to the records, this compound "O=Nc1c(O)c2ccccc2c2ccccc12" displays GI50 of 0.476 µM

====

System: LOX IMVI melanoma
Assay: NCI tumour cell line growth inhibition, 48 h
Hi, to clarify the labels: Satisfied covers TGI from 20 µM upward, Not satisfied covers anything below 20 µM.

Here's what some known entries look like.
1. CSc1nc(N)c2c(n1)NC(c1ccccc1)C1CCc3ccccc3C1=N2 (centres undefined)	Satisfied
2. N=C(N)SCc1ccc([N+](=O)[O-])cc1[N+](=O)[O-]	Satisfied
3. CC(=O)N(C(C)=O)n1nc2c(n1)C(=O)c1ccccc1C2=O	Satisfied
4. O[C@H]1[C@H](O)[C@@H](Cn2nnc(-c3ccccc3)c2-c2ccccc2)OCO[C@@H]1Cn1nnc(-c2ccccc2)c1-c1ccccc1	Not satisfied
5. COc1ccc(/C(=N/O)c2cc(OC)c(OC)c(OC)c2)c(OC)c1N	Satisfied
6. CC(=O)/C(=C\c1c(-c2ccccc2)[nH]c2ccccc12)S(=O)(=O)c1ccccc1	Not satisfied
7. S=C(c1c[nH]c2ccccc12)N1CCCCC1	Satisfied
8. O=C(COc1ccc(-c2nc3cc(Cl)c(Cl)cc3[nH]2)cc1)N=Nc1c(O)[nH]c2ccccc12	Not satisfied
9. CCOC(=O)C1=C(C)NC(C)=C(C(=O)OCC)C1c1ccc(C)cc1	Satisfied
10. COc1cc2ccc(CC(N)=O)cc2cc1OC	Satisfied

Does the molecule "COc1ccc2nccc(/C=C/c3ccnc4ccc(OC)cc34)c2c1" have recorded TGI that is 20 µM or more?
Satisfied

In plain terms: is recorded TGI at least 20 µM for "C=CCn1c(-c2ccc(Cl)cc2Cl)csc1=Nc1c(C)n(C)n(-c2ccccc2)c1=O" ?
Satisfied

Determine whether this molecule has TGI no lower than 20 µM: "Oc1ccccc1C=Nc1ccccc1N=Cc1ccccc1O.[Cu+2]"
Not satisfied

# bool: TGI of "Cc1ccc(C)c2c(N=Nc3ccccc3[N+](=O)[O-])c(O)[nH]c12" >= 20 µM
Satisfied

Evaluate "Cc1nnc([C@@]2(C)CC[C@H]3[C@@H](CCC4=CC(=O)CC[C@@]43C)[C@@H]2CC#N)o1" : TGI at minimum 20 µM?
Satisfied

Quick check, TGI >= 20 µM? "O=C1CCCN1CCCN=c1cc2n(-c3ccc(Cl)cc3)c3ccccc3nc-2cc1Nc1ccc(Cl)cc1"
Satisfied

Dear colleague, could you confirm whether "COC1=CC(=O)NCCN1" has TGI at or above 20 µM?
Satisfied
